biological target: free FIXa (activated Factor IX) (UniProt P00740 47-191; P00740 227-461); assay: BLI
ENDPOINT LABEL: Kd (nM)
Answer in nM, number only, no unit symbol.

Q: Give reported Kd value for BIIB-9-564 (antibody, V domains shown) VH: QVQLQESGPGLVKPSETLSLTCAVSGYSISSGYYWAWIRQPPGKGLEWIGSIYHSGSTYYNPSLKSRVTISVDTSKNQFSLKLSSVTAADTAVYYCARDPGYSWEYFDYWGQGTLVTVSS VL: DIQMTQSPSSLSASVGDRVTITCRASQSISSYLNWYQQKPGKAPKLLIYAASSLQSGVPSRFSGSGSGTDFTLTISSLQPEDFATYYCQQSVAVPPTFGGGTKVEIK
A: 17.4

Q: Specify Kd for BIIB-9-433 (antibody, V domains shown) VH: QLQLQESGPGLVKPSETLSLTCTVSGGSISSSRYYWGWIRQPPGKGLEWIGSIYYSGSTYYNPSLKSRVTISVDTSKNQFSLKLSSVTAADTAVYYCARDAGYSAELFDYWGQGTLVTVSS VL: EIVLTQSPATLSLSPGERATLSCRASQSVSSYLAWYQQKPGQAPRLLIYDASNRATGIPARFSGSGSGTDFTLTISSLEPEDFAVYYCQQSSAYPPTFGGGTKVEIK and stop.
A: 16.4

Q: Identify Kd associated with the binder BIIB-9-884 (antibody, V domains shown) VH: QLQLQESGPGLVKPSETLSLTCTVSGGSISSSDYYWGWIRQPPGKGLEWIGSIYYSGSTYYNPSLKSRVTISVDTSKNQFSLKLSSVTAADTAVYYCARSPRHKVRGPNWFDPWGQGTLVTVSS VL: EIVLTQSPGTLSLSPGERATLSCRASQSVSSSYLAWYQQKPGQAPRLLIYGASSRATGIPDRFSGSGSGTDFTLTISRLEPEDFAVYYCQQYHLLPPTFGGGTKVEIK
A: 1.79
